Items are presented alongside their recorded inhibition.
Biological target: MAP kinase-interacting serine/threonine-protein kinase 2 (Homo sapiens) (UniProt Q9HBH9)
Sequence (Q9HBH9 whole entry, looked up): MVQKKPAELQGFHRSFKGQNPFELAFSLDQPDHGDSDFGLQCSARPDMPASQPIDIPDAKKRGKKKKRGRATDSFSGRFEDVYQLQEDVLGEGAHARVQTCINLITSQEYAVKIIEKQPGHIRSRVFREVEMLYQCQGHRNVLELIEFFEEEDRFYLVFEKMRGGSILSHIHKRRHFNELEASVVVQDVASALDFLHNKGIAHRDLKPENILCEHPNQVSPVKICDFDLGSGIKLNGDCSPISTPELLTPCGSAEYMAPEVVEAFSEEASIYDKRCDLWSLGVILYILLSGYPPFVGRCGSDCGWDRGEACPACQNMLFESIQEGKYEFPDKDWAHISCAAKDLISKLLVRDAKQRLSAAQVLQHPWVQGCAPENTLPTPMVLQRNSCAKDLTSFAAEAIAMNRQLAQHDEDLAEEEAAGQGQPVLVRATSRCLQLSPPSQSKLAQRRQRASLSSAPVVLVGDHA
Experiment: Inhibition of MNK2 (unknown origin) at 10 uM
endpoint: inhibition (%)

compound	endpoint value
CCN(CC)C/C=C/C(=O)NC/C=C/c1cc(OC)cc(O)c1C(=O)OC(C)C	5.2
CCN(CC)C/C=C/C(=O)NC/C=C/c1cc(OCCc2ccc(F)cc2)cc(O)c1C(=O)OC(C)C	0.8
C=CC(=O)NC/C=C/c1cc(OCCc2ccc(F)cc2)cc(O)c1C(=O)OC(C)C	1.1
COc1cc(O)c(C(=O)OCc2ccc(F)cc2)c(/C=C/CN2C(=O)C=CC2=O)c1	0
C=CC(=O)NC/C=C/c1cc(OCCCN2CCOCC2)cc(O)c1C(=O)OC(C)C	6.5
COc1cc(O)c(C(=O)OCc2ccc(Br)cc2)c(/C=C/CN2C(=O)C=CC2=O)c1	0
COc1cc(O)c(C(=O)OC(C)C)c(/C=C/CN2C(=O)C=CC2=O)c1	4.1
COc1cc(O)c(C(=O)OCC(C)c2ccccc2)c(/C=C/CN2C(=O)C=CC2=O)c1 (stereo not given)	0
CC(C)OC(=O)c1c(O)cc(OCCCN2CCOCC2)cc1/C=C/CN1C(=O)C=CC1=O	3.1
COc1cc(O)c(C(=O)OC(C)C)c(CCCN2C(=O)C=CC2=O)c1	2.4
COc1cc(/C=C/CN2C(=O)C=CC2=O)c(C(=O)OC(C)C)c(OC(C)=O)c1	5
C=CS(=O)(=O)NC/C=C/c1cc(OC)cc(O)c1C(=O)OC(C)C	13.9
CC(C)OC(=O)c1c(O)cc(OCCN2CCOCC2)cc1CCCN1C(=O)C=CC1=O	1.8
COc1cc(O)c(C(=O)OCC2CCCCC2)c(/C=C/CN2C(=O)C=CC2=O)c1	0
C/C=C/C(=O)NC/C=C/c1cc(OCCCN2CCOCC2)cc(O)c1C(=O)OC(C)C	12.9
